Recorded values, source patent US8846698B2.

target-or-system: TRKA (Homo sapiens (Human))
Sequence (P04629 441-796): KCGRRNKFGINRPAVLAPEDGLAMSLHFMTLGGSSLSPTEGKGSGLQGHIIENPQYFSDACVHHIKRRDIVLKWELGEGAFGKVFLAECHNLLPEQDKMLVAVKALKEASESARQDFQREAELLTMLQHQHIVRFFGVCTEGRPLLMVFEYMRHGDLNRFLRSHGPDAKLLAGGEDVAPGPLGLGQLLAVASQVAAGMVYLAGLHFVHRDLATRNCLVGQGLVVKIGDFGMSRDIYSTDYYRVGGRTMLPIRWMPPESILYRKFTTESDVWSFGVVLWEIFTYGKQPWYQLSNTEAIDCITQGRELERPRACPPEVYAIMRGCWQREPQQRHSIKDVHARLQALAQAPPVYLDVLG
assay-name: Isolated TRK enzyme assay (HTRF KinEASE-TK), TRKA
Assay type: biochemical
experimental-parameters: read-out: Trka enzyme (IC50)
pIC50: −log10 of the molar value.
reported-property: pIC50

> print(dat)
                         chemical.structure  reported.property  observed.measurement
1  CC(C)(CO)n1cc(C(=O)c2cncc(NC(=O)Cc3cccc(C(F)(F)F)c3)c2)c2cnc(N)nc21              pIC50                  8.96
2  O=C(Cc1ccc(C(F)(F)F)c(F)c1)Nc1cncc(C(=O)c2cn(C(CO)CO)c3ncncc23)c1              pIC50                  6.36
3  Cc1c(Cl)c(C(=O)Nc2cncc(C(=O)c3cn(C(C)C)c4ncncc34)c2)nn1C              pIC50                  7.32
4  O=C(Cc1ccc(Cl)cc1)Nc1cncc(C(=O)c2c[nH]c3ncncc23)c1              pIC50                  6.23

###

target-or-system: MDR1 (Homo sapiens (Human))
Sequence (P08183 whole entry): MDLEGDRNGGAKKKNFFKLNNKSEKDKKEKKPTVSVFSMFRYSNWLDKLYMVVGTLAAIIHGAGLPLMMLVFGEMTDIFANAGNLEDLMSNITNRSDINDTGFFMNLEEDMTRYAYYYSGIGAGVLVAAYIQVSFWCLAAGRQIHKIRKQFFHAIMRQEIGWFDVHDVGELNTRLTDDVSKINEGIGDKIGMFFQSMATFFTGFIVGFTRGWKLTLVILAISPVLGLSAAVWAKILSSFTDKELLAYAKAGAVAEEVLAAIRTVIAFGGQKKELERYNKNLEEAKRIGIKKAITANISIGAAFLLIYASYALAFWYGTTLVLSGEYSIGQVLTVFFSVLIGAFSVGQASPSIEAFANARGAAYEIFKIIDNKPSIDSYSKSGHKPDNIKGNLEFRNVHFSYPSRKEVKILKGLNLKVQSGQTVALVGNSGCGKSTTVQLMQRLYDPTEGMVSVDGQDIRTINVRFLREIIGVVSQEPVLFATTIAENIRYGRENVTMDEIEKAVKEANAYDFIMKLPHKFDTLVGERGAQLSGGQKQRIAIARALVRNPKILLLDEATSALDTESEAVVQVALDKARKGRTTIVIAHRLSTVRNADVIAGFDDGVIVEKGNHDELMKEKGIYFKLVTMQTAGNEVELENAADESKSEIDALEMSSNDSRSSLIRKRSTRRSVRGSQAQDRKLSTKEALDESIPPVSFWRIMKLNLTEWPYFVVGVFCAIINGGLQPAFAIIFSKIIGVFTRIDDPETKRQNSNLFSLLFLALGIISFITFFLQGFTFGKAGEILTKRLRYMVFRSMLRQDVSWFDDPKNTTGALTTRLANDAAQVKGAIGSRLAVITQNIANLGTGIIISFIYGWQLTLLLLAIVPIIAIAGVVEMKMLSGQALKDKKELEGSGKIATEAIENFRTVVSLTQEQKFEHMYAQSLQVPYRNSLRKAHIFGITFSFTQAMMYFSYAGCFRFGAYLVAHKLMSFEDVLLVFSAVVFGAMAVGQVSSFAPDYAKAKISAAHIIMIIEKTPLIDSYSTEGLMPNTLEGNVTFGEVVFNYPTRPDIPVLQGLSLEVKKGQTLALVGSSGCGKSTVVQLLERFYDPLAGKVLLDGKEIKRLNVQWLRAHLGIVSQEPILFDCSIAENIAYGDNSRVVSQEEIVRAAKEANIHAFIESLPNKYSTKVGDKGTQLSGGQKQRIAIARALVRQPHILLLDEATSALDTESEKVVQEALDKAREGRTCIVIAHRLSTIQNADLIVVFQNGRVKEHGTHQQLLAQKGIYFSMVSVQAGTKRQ
assay-name: MDCK-MDR1 assay (in vitro brain penetration)
Format: in vitro ADME
experimental-parameters: human; MDCK-MDR1, A to B; read-out: MDCK MDR1 Papp AB
Description: MDCK-MDR1: MDCK-MDR1 data were collected according to the method described in “Are MDCK Cells Transfected with the Human MDR1 Gene a Good Model of the Human Intestinal Mucosa?” http://www.springerlink.com/content/qfhqlqbr4fnp3 khf/fulltext.pdf
reported-property: Papp A→B

> print(dat)
                                    molecule  observed.measurement
 1  CC(CO)n1cc(C(=O)c2cncc(NC(=O)Cc3ccc(F)cn3)c2)c2cnc(N)nc21 (single isomer, unassigned)        < 1 ×10⁻⁶ cm/s
 2  CC(C)(CO)n1cc(C(=O)c2cncc(NC(=O)Cc3ccc(Cl)cn3)c2)c2cncnc21        1.3 ×10⁻⁶ cm/s
 3  C[C@H](CO)n1cc(C(=O)c2cncc(NC(=O)Cn3cc(C4CC4)nn3)c2)c2cncnc21        < 1 ×10⁻⁶ cm/s
 4  Cc1cc(C(F)(F)F)nn1CC(=O)Nc1cncc(C(=O)c2cn([C@H](C)CO)c3ncncc23)c1        < 1 ×10⁻⁶ cm/s
 5  CC(CO)n1cc(C(=O)c2cncc(NC(=O)Cc3ccc(Cl)cn3)c2)c2cnc(N)nc21 (single isomer, unassigned)        < 1 ×10⁻⁶ cm/s
 6  CC(C)(C)n1cc(C(=O)c2cncc(NC(=O)Cn3cc(C(F)(F)F)cn3)c2)c2cncnc21        1.8 ×10⁻⁶ cm/s
 7  C[C@H](CO)n1cc(C(=O)c2cncc(NC(=O)Cc3ccc(Cl)cc3)c2)c2cncnc21        < 1 ×10⁻⁶ cm/s
 8  CC(C)(CO)n1cc(C(=O)c2cncc(NC(=O)Cn3cc(C(F)(F)F)nn3)c2)c2cncnc21        < 1 ×10⁻⁶ cm/s
 9  CC(C)(CO)n1cc(C(=O)c2cncc(NC(=O)Cn3cc(C4CC4)cn3)c2)c2cncnc21          1 ×10⁻⁶ cm/s
10  C[C@H](CO)n1cc(C(=O)c2cncc(NC(=O)Cc3ccc(C(F)(F)F)cc3)c2)c2cncnc21        < 1 ×10⁻⁶ cm/s
11  C[C@@H](CO)n1cc(C(=O)c2cncc(NC(=O)Cn3ccc(C(F)(F)F)n3)c2)c2cncnc21        < 1 ×10⁻⁶ cm/s
12  CC(C)(CO)n1cc(C(=O)c2cncc(NC(=O)Cc3ccc(Cl)cn3)c2)c2cnc(N)nc21        < 1 ×10⁻⁶ cm/s
13  CC(C)(CO)n1cc(C(=O)c2cncc(NC(=O)Cn3cc(C4CC4)nn3)c2)c2cnc(N)nc21        1.1 ×10⁻⁶ cm/s
14  CC(C)(CO)n1cc(C(=O)c2cncc(NC(=O)Cc3ccc(Cl)cc3)c2)c2cncnc21        < 1 ×10⁻⁶ cm/s
15  Cc1cc(C(F)(F)F)nn1CC(=O)Nc1cncc(C(=O)c2cn(C(C)(C)CO)c3ncncc23)c1        < 1 ×10⁻⁶ cm/s
16  CC(CO)n1cc(C(=O)c2cncc(NC(=O)Cn3cc(C4CC4)cn3)c2)c2cncnc21 (centres unmarked)        < 1 ×10⁻⁶ cm/s
17  CC(CO)n1cc(C(=O)c2cncc(NC(=O)Cn3cc(C(F)(F)F)nn3)c2)c2cnc(N)nc21 (single isomer, unassigned)        < 1 ×10⁻⁶ cm/s
18  CC(C)(C)n1cc(C(=O)c2cncc(NC(=O)Cc3ccc(F)cn3)c2)c2cncnc21        5.5 ×10⁻⁶ cm/s
19  CC(CO)n1cc(C(=O)c2cncc(NC(=O)Cn3ccc(C(F)(F)F)n3)c2)c2cnc(N)nc21 (single isomer, unassigned)        < 1 ×10⁻⁶ cm/s
20  CC(C)(C)n1cc(C(=O)c2cncc(NC(=O)Cn3cc(C4CC4)nn3)c2)c2cncnc21        < 1 ×10⁻⁶ cm/s
21  CC(C)(CO)n1cc(C(=O)c2cncc(NC(=O)Cc3ccc(C(F)(F)F)cc3)c2)c2cncnc21        < 1 ×10⁻⁶ cm/s
22  Cc1cc(C(F)(F)F)nn1CC(=O)Nc1cncc(C(=O)c2cn(C(C)(C)CO)c3nc(N)ncc23)c1        < 1 ×10⁻⁶ cm/s
23  CC(C)(CO)n1cc(C(=O)c2cncc(NC(=O)Cn3ccc(C(F)(F)F)n3)c2)c2cnc(N)nc21        < 1 ×10⁻⁶ cm/s
24  C[C@@H](CO)n1cc(C(=O)c2cncc(NC(=O)Cn3nc4ccccc4n3)c2)c2cncnc21        < 1 ×10⁻⁶ cm/s
25  C[C@@H](CO)n1cc(C(=O)c2cncc(NC(=O)Cc3ccc(C(F)(F)F)cc3)c2)c2cncnc21        < 1 ×10⁻⁶ cm/s
26  CC(CO)n1cc(C(=O)c2cncc(NC(=O)Cc3ccc(C(F)(F)F)cc3)c2)c2cnc(N)nc21 (single isomer, unassigned)        < 1 ×10⁻⁶ cm/s
27  CC(C)(CO)n1cc(C(=O)c2cncc(NC(=O)Cn3cc(C4CC4)nn3)c2)c2cncnc21        < 1 ×10⁻⁶ cm/s
28  CC(C)(CO)n1cc(C(=O)c2cncc(NC(=O)Cn3ccc(C(F)(F)F)n3)c2)c2cncnc21        < 1 ×10⁻⁶ cm/s
29  CC(C)(C)n1cc(C(=O)c2cncc(NC(=O)Cn3ccc(C4CC4)n3)c2)c2cncnc21        8.7 ×10⁻⁶ cm/s

###

target-or-system: TRKB (Homo sapiens (Human), UniProt Q16620)
Sequence (Q16620 32-822 limits assumed): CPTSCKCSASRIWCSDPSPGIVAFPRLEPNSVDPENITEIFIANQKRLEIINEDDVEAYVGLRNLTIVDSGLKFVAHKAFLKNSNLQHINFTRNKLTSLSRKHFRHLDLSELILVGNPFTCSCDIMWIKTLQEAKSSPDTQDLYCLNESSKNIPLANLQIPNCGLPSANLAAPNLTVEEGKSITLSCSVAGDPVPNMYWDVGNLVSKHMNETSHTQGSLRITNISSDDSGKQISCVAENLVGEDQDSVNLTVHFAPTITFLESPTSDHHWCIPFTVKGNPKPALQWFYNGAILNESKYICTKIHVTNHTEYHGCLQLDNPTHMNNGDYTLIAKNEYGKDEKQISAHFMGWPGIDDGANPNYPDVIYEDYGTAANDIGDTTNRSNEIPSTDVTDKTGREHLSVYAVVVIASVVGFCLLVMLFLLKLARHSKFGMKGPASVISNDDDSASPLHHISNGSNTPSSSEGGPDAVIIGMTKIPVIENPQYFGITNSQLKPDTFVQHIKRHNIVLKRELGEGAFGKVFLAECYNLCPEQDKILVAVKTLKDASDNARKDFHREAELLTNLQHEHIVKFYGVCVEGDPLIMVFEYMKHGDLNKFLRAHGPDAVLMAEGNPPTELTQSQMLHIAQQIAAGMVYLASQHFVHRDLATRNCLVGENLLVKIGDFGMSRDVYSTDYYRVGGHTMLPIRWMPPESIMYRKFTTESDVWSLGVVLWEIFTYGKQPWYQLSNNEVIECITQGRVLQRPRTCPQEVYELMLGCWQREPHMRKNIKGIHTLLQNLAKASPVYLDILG
assay-name: cell-based
experimental-parameters: TrkB cell potency, TRKB PathHunter cell line
pIC50: −log10 of the molar value.
reported-property: pIC50

> print(dat)
                                    molecule  reported.property  observed.measurement
 1  CC(CO)n1cc(C(=O)c2cncc(NC(=O)Cc3ccc(Cl)cn3)c2)c2cnc(N)nc21 (single isomer, unassigned) [Example 35]              pIC50                  7.43
 2  CC(CO)n1cc(C(=O)c2cncc(NC(=O)Cn3cc(C(F)(F)F)nn3)c2)c2cnc(N)nc21 (single isomer, unassigned) [Example 39]              pIC50                  5.33
 3  CC(CO)n1cc(C(=O)c2cncc(NC(=O)Cn3cc(C4CC4)cn3)c2)c2cncnc21 (stereo not drawn)              pIC50                  7.72
 4  CC(C)(CO)n1cc(C(=O)c2cncc(NC(=O)Cn3cc(C4CC4)nn3)c2)c2cncnc21              pIC50                  6.70
 5  C[C@@H](CO)n1cc(C(=O)c2cncc(NC(=O)Cc3ccc(Cl)cc3)c2)c2cncnc21              pIC50                  7.96
 6  CC(C)(CO)n1cc(C(=O)c2cncc(NC(=O)Cn3cc(C(F)(F)F)nn3)c2)c2cncnc21              pIC50                  7.23
 7  CC(C)(C)n1cc(C(=O)c2cncc(NC(=O)Cn3cc(C4CC4)cn3)c2)c2cncnc21              pIC50                  9.10
 8  CC(CO)n1cc(C(=O)c2cncc(NC(=O)Cc3ccc(Cl)cc3)c2)c2cnc(N)nc21 (single isomer, unassigned) [Example 42]              pIC50                  7.57
 9  CC(C)(CO)n1cc(C(=O)c2cncc(NC(=O)Cn3cc(C(F)(F)F)nn3)c2)c2cnc(N)nc21              pIC50                  6.76
10  CC(CO)n1cc(C(=O)c2cncc(NC(=O)Cn3cc(C(F)(F)F)nn3)c2)c2cnc(N)nc21 (single isomer, unassigned) [Example 45]              pIC50                  5.42
11  C[C@H](CO)n1cc(C(=O)c2cncc(NC(=O)Cc3ccc(C(F)(F)F)cc3)c2)c2cncnc21              pIC50                  7.72
12  CC(C)(C)n1cc(C(=O)c2cncc(NC(=O)Cc3ccc(F)cn3)c2)c2cncnc21              pIC50                  8.82
13  CC(C)(C)n1cc(C(=O)c2cncc(NC(=O)Cn3cc(C4CC4)nn3)c2)c2cncnc21              pIC50                  8.19
14  Cc1cc(C(F)(F)F)nn1CC(=O)Nc1cncc(C(=O)c2cn(C(C)(C)CO)c3ncncc23)c1              pIC50                  8.23
15  CC(C)(C)n1cc(C(=O)c2cncc(NC(=O)Cn3ccc(C4CC4)n3)c2)c2cncnc21              pIC50                  8.74
16  CC(C)(CO)n1cc(C(=O)c2cncc(NC(=O)Cn3nc4ccccc4n3)c2)c2cnc(N)nc21              pIC50                  8.35
17  C[C@H](CO)n1cc(C(=O)c2cncc(NC(=O)Cn3ccc(C(F)(F)F)n3)c2)c2cncnc21              pIC50                  6.72
18  C[C@@H](CO)n1cc(C(=O)c2cncc(NC(=O)Cc3ccc(C(F)(F)F)cc3)c2)c2cncnc21              pIC50                  8.18
19  CC(C)(CO)n1cc(C(=O)c2cncc(NC(=O)Cc3ccc(F)cn3)c2)c2cnc(N)nc21              pIC50                  8.12
20  CC(CO)n1cc(C(=O)c2cncc(NC(=O)Cc3ccc(Cl)cc3)c2)c2cnc(N)nc21 (single isomer, unassigned) [Example 34]              pIC50                  7.60
21  CC(C)(CO)n1cc(C(=O)c2cncc(NC(=O)Cn3ccc(C(F)(F)F)n3)c2)c2cnc(N)nc21              pIC50                  7.80
22  CC(C)(C)n1cc(C(=O)c2cncc(NC(=O)Cn3ccc(C(F)(F)F)n3)c2)c2cncnc21              pIC50                  8.44
23  CC(CO)n1cc(C(=O)c2cncc(NC(=O)Cc3ccc(Cl)cn3)c2)c2cnc(N)nc21 (single isomer, unassigned) [Example 41]              pIC50                  7.15
24  C[C@@H](CO)n1cc(C(=O)c2cncc(NC(=O)Cn3nc4ccccc4n3)c2)c2cncnc21              pIC50                  7.40
25  CC(C)(CO)n1cc(C(=O)c2cncc(NC(=O)Cn3ccc(C(F)(F)F)n3)c2)c2cncnc21              pIC50                  8.12
26  CC(CO)n1cc(C(=O)c2cncc(NC(=O)Cn3ccc(C(F)(F)F)n3)c2)c2cnc(N)nc21 (single isomer, unassigned) [Example 44]              pIC50                  6.26
27  CC(CO)n1cc(C(=O)c2cncc(NC(=O)Cc3ccc(C(F)(F)F)cc3)c2)c2cnc(N)nc21 (single isomer, unassigned) [Example 43]              pIC50                  7.72
28  CC(C)(CO)n1cc(C(=O)c2cncc(NC(=O)Cn3cc(C4CC4)nn3)c2)c2cnc(N)nc21              pIC50                  6.29
29  CC(C)(CO)n1cc(C(=O)c2cncc(NC(=O)Cc3ccc(Cl)cc3)c2)c2cncnc21              pIC50                  8.72
30  Cc1cc(C(F)(F)F)nn1CC(=O)Nc1cncc(C(=O)c2cn([C@@H](C)CO)c3ncncc23)c1              pIC50                  7.74
